Origin of measurements: patent US11597702B2

Entries annotated with measured log10 EC50
target.system: GPR120 (Homo sapiens)
Construct: expressed in transfected cells; host or cells: CHO mitoPhotinaGPR120 cells
Sequence (Q5NUL3 whole entry): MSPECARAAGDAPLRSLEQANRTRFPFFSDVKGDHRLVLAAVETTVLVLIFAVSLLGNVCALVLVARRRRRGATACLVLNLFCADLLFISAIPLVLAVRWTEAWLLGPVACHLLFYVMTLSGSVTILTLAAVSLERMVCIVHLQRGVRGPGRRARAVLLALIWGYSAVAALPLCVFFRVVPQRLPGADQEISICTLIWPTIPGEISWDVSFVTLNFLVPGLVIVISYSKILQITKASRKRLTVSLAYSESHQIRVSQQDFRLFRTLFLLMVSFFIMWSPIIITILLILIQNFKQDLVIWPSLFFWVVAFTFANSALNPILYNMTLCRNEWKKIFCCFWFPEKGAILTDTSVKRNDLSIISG
procedure.summary: GPR120 agonism in CHO mitoPhotinaGPR120 cell based assay with fluorescent (Fluo-8 calcium, FLIPRTetra) readout, Agonist Mode, dose response
protocol.conditions: CHO mitoPhotinaGPR120 cells, Fluo-8 No Wash Ca2+ dye, dose response in quadruplicate, 0.0033% fatty acid free BSA
Scale: log10; quantity: EC50; unit before log: µM

Here's what some known entries look like.
* COc1ccc(-n2nc(C)c(C#N)c2COc2ccc(CCO)cc2)cc1 | -0.19
* Cc1cc(CO)cc(C)c1OCc1c(C#N)c(C)nn1-c1ccccc1 | 0.00
* Cc1nn(-c2ccccc2)c(COc2ccccc2)c1C#N | 0.18
* Cc1nn(-c2ccccc2)c(COc2ccccc2CO)c1C#N | 0.91
* Cc1nn(-c2ccccc2)c(COc2cccnc2C#N)c1C#N | 1.28
* Cc1nn(-c2ccccc2)c(C(F)(F)Oc2ccc(CCO)cc2)c1C#N | 0.13
* Cc1nn(-c2ccccc2)c(COc2ccc(CO)cc2F)c1C#N | 0.25
* CCc1ccccc1OCc1c(C#N)c(C)nn1-c1ccccc1 | 0.86

Exercise: Fill blank: measured log10 EC50 of the molecule Cc1nn(-c2ccccc2)c(COc2ccc(CO)cc2C(F)(F)F)c1C#N is ____.
Key: 0.17

Exercise: Fill blank: measured log10 EC50 of the molecule Cc1ccccc1OCc1c(C#N)c(C)nn1-c1ccccc1 is ____.
Key: -0.24
